Target: Murine full-length Lck (amino acid residues 6 to 509) (mouse, UniProt P06240 6-509, phosphotyrosine at 505)
Sequence (P06240 6-509): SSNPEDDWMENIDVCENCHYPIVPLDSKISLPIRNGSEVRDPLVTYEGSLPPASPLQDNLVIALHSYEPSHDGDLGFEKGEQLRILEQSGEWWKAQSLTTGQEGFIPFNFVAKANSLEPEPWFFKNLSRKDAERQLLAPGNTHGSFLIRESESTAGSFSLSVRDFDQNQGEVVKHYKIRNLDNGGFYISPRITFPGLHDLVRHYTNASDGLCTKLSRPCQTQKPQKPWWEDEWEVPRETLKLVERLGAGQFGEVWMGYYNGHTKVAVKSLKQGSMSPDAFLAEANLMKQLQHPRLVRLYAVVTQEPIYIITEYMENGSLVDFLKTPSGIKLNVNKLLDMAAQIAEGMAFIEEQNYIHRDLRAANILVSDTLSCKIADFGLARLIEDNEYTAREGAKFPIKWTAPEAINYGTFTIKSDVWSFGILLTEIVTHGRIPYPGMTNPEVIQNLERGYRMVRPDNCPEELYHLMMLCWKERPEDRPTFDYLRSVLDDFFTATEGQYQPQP
Assay: SPR
readout_label: Kd (nM)
Lab book: enter the figure in nM, no units written.

# binder, test_result
measured = [
    ("CNSRRNRLLQSDYMNMTPRRPGLTRKPYQAYAAARDFAAYRP (domain or fragment, mouse, disulfide between the added N-terminal cysteines of the two chains (oxidized with 1 mM GSSG)) [CD28 Mut5 cytoplasmic domain, disulfide-linked dimer]", 187),
]

Please find the next binder below.
Prompt: Request the reported Kd associated with CNSRRNRLLQSDYMNMTPRRPGLTRKPYQPYAPARDFAAYRP (domain or fragment, mouse, disulfide between the added N-terminal cysteines of the two chains (oxidized with 1 mM GSSG)) [CD28WT cytoplasmic domain (CD28CD), disulfide-linked dimer]
Completion: 199
